The entries below are paired with their reported protein stability index.
B1: MLH1 (parent)
chain: YAHQMVRTDSREQKLDAFLQPLSK

- Variants of: B1
- protocol: protein stability index of a GFP-peptide fusion (GPS, HEK-293T) (PSI 1-6); higher = more stable;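 further: lentivirally expressed fusions sorted by FACS into six bins by GFP to DsRed ratio, PSI derived from sequencing read proportions per bin multiplied by bin number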
- test.conditions: c terminus: a fixed tail appended
Write the number on its own, no unit after it.

Past entries and their recorded results:
D9M has a reported protein stability index of 2.49

Per the records, this variant ( R7N ) has protein stability index equal to 2.98

Record E12W . Reported protein stability index: 1.6

Further cases:
// protein stability index lookup, variant = V6K , result: 2.53
